- system_under_test: Matrix metalloproteinase-14 (Homo sapiens, UniProt P50281)
- assay_protocol: Percent remaining enzyme activity (RA) in catalytic domains of the membrane type MT1-MMP (matrix metalloprotease-14)
- Parameters: concentration or dose not given beside the values
experimental_readout: residual activity (%)

• CN(C)C(=O)[C@H](Cc1ccc2ccccc2c1)NC(=O)C(=O)NO = 30
• CN(C)C(=O)[C@H](COCc1ccccc1)NC(=O)C(=O)NO = 41
• C[C@H](NC(=O)[C@H](Cc1ccc(NC(=O)Nc2ccccc2)cc1)NC(=O)C(=O)NO)c1ccccc1 = 74
• CN(C)C(=O)[C@H](Cc1ccc(COc2ccccc2)cc1)NC(=O)C(=O)NO = 37
• CC(OCc1ccccc1)[C@H](NC(=O)C(=O)NO)C(=O)N[C@@H](C)c1ccccc1 (stereo not given in full) = 71
• CCCC[C@H](NC(=O)C(=O)NO)C(=O)N[C@H](Cc1ccc(OCc2ccccc2)cc1)C(=O)N(C)C = 29
• CN(C)C(=O)[C@H](Cc1ccccc1)NC(=O)C(=O)NO = 15
• O=C(NO)C(=O)NCCC(NC(=O)C(=O)NO)C1CCCCC1 (stereo not given) = 48
• O=C(NO)C(=O)N[C@@H](Cc1ccc(COc2ccccc2)cc1)C(=O)NO = 23
• CC(NC(=O)[C@H](Cc1ccccc1)NC(=O)C(=O)NO)c1cccc2ccccc12 (stereo not given in full) = 42

====

- system_under_test: Matrix metalloproteinase-9 (Homo sapiens, UniProt P14780)
- Sequence (P14780 whole entry): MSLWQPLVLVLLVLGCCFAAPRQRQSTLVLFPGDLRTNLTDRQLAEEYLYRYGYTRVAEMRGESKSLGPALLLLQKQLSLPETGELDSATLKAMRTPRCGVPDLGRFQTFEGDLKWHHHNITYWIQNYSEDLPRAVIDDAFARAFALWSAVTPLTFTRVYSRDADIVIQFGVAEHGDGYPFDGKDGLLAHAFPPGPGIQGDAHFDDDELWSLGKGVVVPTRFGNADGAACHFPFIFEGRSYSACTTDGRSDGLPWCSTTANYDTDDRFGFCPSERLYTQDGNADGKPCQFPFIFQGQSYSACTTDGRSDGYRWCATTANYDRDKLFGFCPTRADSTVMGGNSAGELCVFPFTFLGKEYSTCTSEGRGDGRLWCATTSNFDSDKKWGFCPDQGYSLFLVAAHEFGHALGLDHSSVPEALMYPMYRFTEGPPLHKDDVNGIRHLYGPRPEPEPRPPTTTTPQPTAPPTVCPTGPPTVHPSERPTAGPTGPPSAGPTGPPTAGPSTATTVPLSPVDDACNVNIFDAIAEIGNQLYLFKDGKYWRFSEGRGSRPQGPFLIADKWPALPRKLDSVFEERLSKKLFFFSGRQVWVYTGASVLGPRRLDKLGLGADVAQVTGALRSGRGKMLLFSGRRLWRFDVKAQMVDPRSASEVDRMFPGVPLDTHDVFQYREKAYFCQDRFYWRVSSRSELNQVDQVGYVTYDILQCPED
- assay_protocol: Inhibitory activity against human gelatinase B (matrix metalloprotease-9)
pKi: −log10 of the molar value.
Recorded pKi for the following compounds
experimental_readout: pKi

* C[C@H](NC(=O)[C@H](CC(=O)OCc1ccccc1)NC(=O)C(=O)NO)c1ccccc1 | 6.22
* C[C@@H](NC(=O)C(=O)NO)c1ccc2ccccc2c1 | 5.48
* CC(OCc1ccccc1)[C@H](NC(=O)C(=O)NO)C(=O)N[C@@H](C)c1ccccc1 (stereo partly drawn) | 5.49
* CC(OCc1ccccc1)[C@H](NC(=O)C(=O)NO)C(=O)N(C)C (stereo partly drawn) | 5.40
* CC(C)C[C@H](NC(=O)C(=O)NO)C(=O)N[C@@H](C)c1ccccc1 | 5.26
* C[C@H](NC(=O)[C@H](COCc1ccccc1)NC(=O)C(=O)NO)c1ccccc1 | 5.48
* CCCCC(CC)COCCCNC(=O)C(=O)NO (stereo not drawn) | 6.60
* CN(C)C(=O)[C@H](Cc1c[nH]c2ccccc12)NC(=O)C(=O)NO | 5.36

====

- system_under_test: Matrix metalloproteinase-14 (Homo sapiens, UniProt P50281)
- assay_protocol: Percent remaining enzyme activity (RA) in catalytic domains of the membrane type MT1-MMP (matrix metalloprotease-14)
- Design: concentration or dose not given beside the values
Criterion: residual activity strictly less than 70%. Met: criterion met. Not met: criterion not met.

• CNC(=O)[C@H](Cc1ccc(OCc2ccccc2)cc1)NC(=O)C(=O)NO = criterion met
• C[C@H](NC(=O)C(=O)NO)c1ccc2ccccc2c1 = criterion not met
• CC(C)C[C@H](NC(=O)C(=O)NO)C(=O)N[C@H](C)c1ccccc1 = criterion not met
• CCCCC(CC)COCCCNC(=O)C(=O)NO (stereo unspecified) = criterion met
• CC(OCc1ccccc1)[C@H](NC(=O)C(=O)NO)C(=O)N(C)C (stereo partly specified) = criterion met
• C[C@H](NC(=O)[C@H](COCc1ccccc1)NC(=O)C(=O)NO)c1ccccc1 = criterion met
